# test system: T1, recombinant bovine HSC70 (bovine, UniProt P19120 1-650)
# T1 construct: heat-shock cognate HSC70 protein, bovine, recombinant (Stressgen); Immobilised through one of its four thiol groups in the SPR experiment; no tag is named; also called recombinant HSC70 protein; source: bought: Stressgen (recombinant)
# T1 sequence (P19120 whole entry): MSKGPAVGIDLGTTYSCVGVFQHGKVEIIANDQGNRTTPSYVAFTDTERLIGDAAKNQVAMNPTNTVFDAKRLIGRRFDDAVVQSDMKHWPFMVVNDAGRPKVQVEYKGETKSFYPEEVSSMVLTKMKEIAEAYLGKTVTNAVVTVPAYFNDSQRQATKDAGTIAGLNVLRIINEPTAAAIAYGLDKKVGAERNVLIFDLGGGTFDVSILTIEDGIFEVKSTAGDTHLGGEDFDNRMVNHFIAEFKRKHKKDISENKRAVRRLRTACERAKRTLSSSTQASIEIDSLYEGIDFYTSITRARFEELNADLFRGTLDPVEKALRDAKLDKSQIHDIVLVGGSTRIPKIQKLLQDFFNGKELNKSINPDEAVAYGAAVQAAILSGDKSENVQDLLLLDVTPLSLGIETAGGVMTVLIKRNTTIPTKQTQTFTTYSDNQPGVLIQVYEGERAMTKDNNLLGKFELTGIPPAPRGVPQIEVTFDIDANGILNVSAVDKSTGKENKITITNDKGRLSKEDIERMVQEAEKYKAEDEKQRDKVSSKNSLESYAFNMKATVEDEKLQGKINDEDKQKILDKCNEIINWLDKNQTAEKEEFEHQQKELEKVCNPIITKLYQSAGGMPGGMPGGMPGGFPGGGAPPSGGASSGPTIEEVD
# test description: SPR; BIAcore 3000; recombinant bovine HSC70 immobilised on CM5 chip through its thiol groups (13,000 RU); peptides injected (1.56 to 12.5 µM) 3 min, dissociation 3 min; 25°C, 20 µL/min; HBS-EP pH 7.4; 1:1 Langmuir model
# protocol conditions: both partners purified
Non-standard residues stand in square brackets, D forms with d. No end group written: not given here. pS = N[C@@H](COP(=O)(O)O)C(=O)O
property name: Kd (µM)
State just the number; it will be interpreted in µM.

RIHMVYSKRSGKPRGYAFIEY (also called non-phosphorylated analogue; source: synthetic peptide) [non-phosphorylated peptide 131-151 of the U1-70K snRNP protein]    6.72

stdin: Which Kd value is on record for RIHMVYSKR[pS]GKPRGYAFIEY (pS is the phosphoserine; also called phosphopeptide P140; source: synthetic peptide) [P140 peptide (U1-70K snRNP protein residues 131-151, phosphorylated on Ser140)] ?
stdout: 7.32

Values were extracted from paper PMC2669294.
